Reference for the values: patent EP4644383A1

This section presents molecules with their documented IC50 values.
molecular target: FGFR1 (Homo sapiens, UniProt P11362); construct: cytoplasmic domain [398-822 (terminal) amino acids]; purchased Carna 08-133; experiment: FGFR1 kinase activity inhibition assay (LanthaScreen TR-FRET); format: biochemical; conditions: FGFR1 kinase, TR-FRET; read-out: IC50 (nM) FGFR1
Sequence (P11362 398-822): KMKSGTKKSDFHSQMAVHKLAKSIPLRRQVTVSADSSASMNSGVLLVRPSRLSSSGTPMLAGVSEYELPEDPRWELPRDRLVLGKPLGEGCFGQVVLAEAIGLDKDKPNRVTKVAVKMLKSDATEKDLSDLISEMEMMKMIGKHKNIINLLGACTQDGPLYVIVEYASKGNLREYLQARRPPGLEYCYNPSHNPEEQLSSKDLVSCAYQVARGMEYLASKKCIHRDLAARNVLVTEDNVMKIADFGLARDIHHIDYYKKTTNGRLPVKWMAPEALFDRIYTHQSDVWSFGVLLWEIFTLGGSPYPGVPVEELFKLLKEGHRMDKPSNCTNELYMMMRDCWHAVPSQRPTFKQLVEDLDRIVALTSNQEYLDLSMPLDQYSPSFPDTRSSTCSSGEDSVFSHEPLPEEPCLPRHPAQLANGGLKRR

The examples below pair each entry with its known result.
| molecule | IC50 |
| --- | --- |
| CC(Oc1ccc2[nH]nc(-c3cnn(C4CN(C(=O)N(C)C)C4)c3)c2c1)c1cccc2nccnc12 (stereo not shown) | 1 to 10 nM |
| CC(Oc1ccc2[nH]nc(-c3cnn(CCS(=O)(=O)N(C)C)c3)c2c1)c1cccc2nccnc12 (stereo not shown) | > 100 nM |
| CNC(C)(C)C(=O)N1CC(n2cc(-c3n[nH]c4ccc(OC(C)c5cccc6nccnc56)cc34)cn2)C1 (stereo not shown) | 1 to 10 nM |

Proceeding to the next molecule to report its IC50.
What measured IC50 goes with `C[C@@H](Oc1cc(F)c2[nH]nc(-c3cnn(C)c3)c2c1)c1c(Cl)cncc1Cl` ?
1 to 10 nM
